Source: patent US4820694A

Kindly state MIC for each of the entries shown.
tested on: Staphylococcus aureus X400; experiment: standard agar-dilution MIC assay; format: cell-based; details: Staphylococcus aureus, X400
Numbers only, in µg/mL.

{"compound": "CCC1OC(=O)CC(O)C(C)C(OC2OC(C)C(OC3CC(C)(O)C(O)C(C)O3)C(N(C)C)C2OC(C)=O)C(CC=O)CC(C)C(=O)C=CC(C)=CC1COC1OC(C)C(OC(=O)COc2ccccc2)C(OC(=O)COc2ccccc2)C1OC (stereo not shown) [Compound 15]", "observed-result": 64}

Go through the items and report each one's MIC.
1. CCC1OC(=O)CC(O)C(C)C(OC2OC(C)C(OC3CC(C)(O)C(O)C(C)O3)C(N(C)C)C2OC(C)=O)C(CC=O)CC(C)C(=O)C=CC(C)=CC1COC1OC(C)C(OC(=O)CC(C)C)C(O)C1OC (stereo not shown) [Compound 5, 2'-O-Acetyl-4'"-O-isovaleryl-macrocin]
2. CCC1OC(=O)CC(O)C(C)C(OC2OC(C)C(OC3CC(C)(O)C(O)C(C)O3)C(N(C)C)C2OC(C)=O)C(CC=O)CC(C)C(=O)C=CC(C)=CC1COC1OC(C)C(OC(C)=O)C(OC(C)=O)C1OC (stereo not shown) [Compound 3, 2',3'",4'"-Tri-O-acetyl-macrocin]
3. CCC1OC(=O)CC(O)C(C)C(OC2OC(C)C(OC3CC(C)(O)C(O)C(C)O3)C(N(C)C)C2OC(C)=O)C(CC=O)CC(C)C(=O)C=CC(C)=CC1COC1OC(C)C(OC(C)=O)C(O)C1OC (stereo not shown) [Compound 1, 2',4'"-Di-O-acetyl-macrocin]

a:
1: 4; 2: 4; 3: 4
